Just for reference, patent US20060148858A1 is where these values come from.

# targetOfAssay: PPARγ-RXRα heterodimer (Homo sapiens)
# Sequence (P37231 29-505): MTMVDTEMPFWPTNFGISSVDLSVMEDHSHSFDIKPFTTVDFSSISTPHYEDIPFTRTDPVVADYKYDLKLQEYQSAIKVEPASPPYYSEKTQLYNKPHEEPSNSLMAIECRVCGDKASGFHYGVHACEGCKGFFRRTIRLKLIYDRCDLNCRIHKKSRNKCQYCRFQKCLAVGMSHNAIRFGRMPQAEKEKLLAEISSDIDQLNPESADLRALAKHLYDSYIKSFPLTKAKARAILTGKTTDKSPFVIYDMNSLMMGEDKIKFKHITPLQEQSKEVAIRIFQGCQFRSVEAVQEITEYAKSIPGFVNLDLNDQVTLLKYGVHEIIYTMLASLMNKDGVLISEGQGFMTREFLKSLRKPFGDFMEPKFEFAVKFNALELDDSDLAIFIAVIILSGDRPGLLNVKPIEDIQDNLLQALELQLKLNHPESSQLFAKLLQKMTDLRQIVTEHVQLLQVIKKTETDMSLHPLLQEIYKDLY
# Sequence (P19793 whole entry partner): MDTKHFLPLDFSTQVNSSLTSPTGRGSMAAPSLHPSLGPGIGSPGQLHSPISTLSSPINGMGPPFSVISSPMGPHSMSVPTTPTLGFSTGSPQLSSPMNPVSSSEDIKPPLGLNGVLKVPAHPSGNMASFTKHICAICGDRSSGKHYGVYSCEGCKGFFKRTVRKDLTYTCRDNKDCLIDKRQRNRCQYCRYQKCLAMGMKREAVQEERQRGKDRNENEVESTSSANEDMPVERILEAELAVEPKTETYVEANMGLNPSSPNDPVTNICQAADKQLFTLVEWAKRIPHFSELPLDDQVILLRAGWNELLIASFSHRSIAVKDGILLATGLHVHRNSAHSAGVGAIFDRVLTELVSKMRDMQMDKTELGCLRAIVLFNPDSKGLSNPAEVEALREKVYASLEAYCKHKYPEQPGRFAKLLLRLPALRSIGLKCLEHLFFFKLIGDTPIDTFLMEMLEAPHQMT
# assayProcedure: PPARγ-RXRα heterodimer ligand activity, luciferase reporter in PPARγ:RXRα:4ERPP/CHO-K1 cells (Test Example 3)
# assayContext: 18-48 hours, concentration for 50% of the maximum fold induction
observationType: EC50 (µM)

(I) CCCc1nn(-c2ccc(C(F)(F)F)cn2)cc1CCCOc1ccc(CCC(=O)O)c(OCC)c1
(II) COc1cccc(CC(=O)O)c1OCCCc1cn(-c2ccc(C)cn2)nc1C(C)C
(III) CCCc1nn(-c2ccc(C(F)(F)F)cn2)cc1CCCOc1c(CC(=O)O)cccc1OC
(IV) CCC(CC)c1nn(-c2ccc(Cl)cn2)cc1CCCOc1c(CC(=O)O)cccc1OC
(V) Cc1cccc(CC(=O)O)c1OCCCc1cn(-c2ccc(C(F)(F)F)cn2)nc1C(C)C
-- ask Kindly sort the 5 molecules above from the smallest to the largest EC50. Hello, could you send the labels back in the order asked? Thank you.
-- reply IV, V, II, III, I

(A) COc1cccc(CC(=O)O)c1OCCCc1cn(-c2ccc(C(F)(F)F)nn2)nc1C(C)C
(B) CCc1cccc(CC(=O)O)c1OCCCc1cn(-c2ccc(C(F)(F)F)cn2)nc1C(C)C
-- ask Lower value for measured EC50? Options: A , B Response format: the label of the selected entry.
-- reply B

(A) COc1cccc(CC(=O)O)c1OCCCc1cn(-c2ccc([N+](=O)[O-])cn2)nc1C(C)C
(B) COc1cccc(CC(=O)O)c1OCCCc1cn(-c2ccc(C#N)cn2)nc1C(C)C
-- ask Lower value for measured EC50? Options: A , B Response format: the label of the selected entry.
-- reply B
(B: 0.03 µM, A: 0.099 µM)

(P) CCC(CC)c1nn(-c2ccc(C(F)(F)F)cn2)cc1CCCOc1nn(CC)cc1CC(=O)O
(Q) CCC(CC)c1nn(-c2ccc(C(F)(F)F)cn2)cc1CCCOc1ccccc1CC(=O)O
-- ask Field: entry with larger EC50 (options P / Q ). Response format: the label of the selected entry.
-- reply P
